Provenance of the data: ChEMBL document CHEMBL4706530

experimentalSystem: Prostaglandin G/H synthase 2 (Homo sapiens, UniProt P35354)
Sequence (P35354 whole entry): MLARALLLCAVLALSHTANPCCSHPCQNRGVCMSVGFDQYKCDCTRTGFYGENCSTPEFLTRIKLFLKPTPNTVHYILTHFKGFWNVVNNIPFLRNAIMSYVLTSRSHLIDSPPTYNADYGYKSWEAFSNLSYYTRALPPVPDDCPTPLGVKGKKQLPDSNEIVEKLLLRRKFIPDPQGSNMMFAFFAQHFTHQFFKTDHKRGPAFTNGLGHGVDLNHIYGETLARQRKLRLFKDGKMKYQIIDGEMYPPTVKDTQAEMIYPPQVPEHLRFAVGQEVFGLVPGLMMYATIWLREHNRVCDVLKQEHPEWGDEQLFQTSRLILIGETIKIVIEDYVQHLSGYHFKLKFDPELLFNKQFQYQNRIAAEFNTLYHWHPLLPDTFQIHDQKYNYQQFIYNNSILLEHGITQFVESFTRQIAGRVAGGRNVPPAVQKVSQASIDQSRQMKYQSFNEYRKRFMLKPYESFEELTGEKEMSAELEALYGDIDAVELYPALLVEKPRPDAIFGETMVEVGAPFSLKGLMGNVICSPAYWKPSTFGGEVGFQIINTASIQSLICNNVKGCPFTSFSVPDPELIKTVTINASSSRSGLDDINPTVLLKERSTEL
assay: Inhibition of human recombinant COX-2 assessed as reduction in PGE2 level using 10 uM arachidonic acid as substrate preincubated with enzyme for 5 mins followed by substrate addition and measured after 20 mins by ELISA
Let's look at some compounds and their measured log10 IC50.
observedProperty: log10 IC50 (log10 of the value in µM)

INSERT INTO results (smi, observed) VALUES
  ('CCCCCC1=CC(=O)C=C(OC)C1=O', 0.28),
  ('COC1=CC(=O)C=C(Br)C1=O', 0.65),
  ('COc1cc(O)cc(Br)c1O', 0.68),
  ('CCCCCc1cc(O)cc(O)c1', 1.24),
  ('CCCCCCCCCCCCCCCC1=CC(=O)C=C(OC)C1=O', 0.95),
  ('CCCCCCCCCCCCCc1cc(O)cc(O)c1', 0.44),
  ('CCCCCCCCCCCC1=CC(=O)C=C(OC)C1=O', -0.24),
  ('CCCCCCCCCCCCCC1=CC(=O)C=C(OC)C1=O', -0.06),
  ('CCCCCCCCCCCCCc1cc(O)cc(OC)c1O', 0.19),
  ('CCCCCc1cccc(OC)c1O', 0.67);
